target-or-test-system: PD-1/PD-L1 (Homo sapiens (Human), UniProt Q9NZQ7)
Sequence (Q9NZQ7 19-238): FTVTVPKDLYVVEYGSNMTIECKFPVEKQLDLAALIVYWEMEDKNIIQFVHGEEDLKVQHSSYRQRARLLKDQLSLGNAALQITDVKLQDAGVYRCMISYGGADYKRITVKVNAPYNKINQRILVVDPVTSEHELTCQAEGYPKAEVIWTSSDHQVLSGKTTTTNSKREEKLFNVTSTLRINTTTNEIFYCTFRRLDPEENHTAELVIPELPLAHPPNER
experiment: PD-1/PD-L1 biochemical protein-protein interaction assay (ALPHA)
test-conditions: 0.3 nM His tagged PD-L1, 2.5 nM biotinylated Fc-PD-1, 60 minutes at 25° C., read-out: IC50 PD-L1-PD1
Below, each entry is listed alongside its reported IC50.
// return numeric value only (unit: nM, not printed)

Recorded IC50, per entry:
>>> measured_result("COc1nc(-c2cccc(-c3cccc(-c4cnc(CN[C@H]5CCNC5=O)c(OC)n4)c3Cl)c2Cl)cnc1CNC[C@@H]1CCC(=O)N1")
0.39
>>> measured_result("COc1nc(-c2cccc(-c3cccc(-c4cnc(CN5CCC6(CC5)NC(=O)NC6=O)c(OC)n4)c3Cl)c2Cl)cnc1CNC[C@@H]1CCC(=O)N1")
0.259

Kindly consider the entry below.
Task: Find the recorded IC50 belonging to `COc1nc(-c2cccc(-c3cccc(-c4cnc(CNC[C@@H]5CCC(=O)N5)c(OC)n4)c3Cl)c2Cl)cnc1CNCc1c[nH]nn1` and report it.
Output: 0.191

###

# reported pIC50; entries follow
target-or-test-system: PD-1/PD-L1 (Homo sapiens (Human))
experiment: PD-1/PD-L1 biochemical protein-protein interaction assay (ALPHA)
test-conditions: 0.3 nM His tagged PD-L1, 2.5 nM biotinylated Fc-PD-1, 60 minutes at 25° C., read-out: IC50 PD-L1-PD1
Expect pIC50 as a plain number equal to -log10 of the molar concentration.

Some compounds with known pIC50 results, for comparison:
>>> measured_result("COc1nc(-c2cccc(-c3cccc(-c4cnc(CNC[C@H]5C[C@](C)(O)C5)c(OC)n4)c3Cl)c2Cl)cnc1CNC[C@@H]1CCC(=O)N1")
10.19
>>> measured_result("COc1nc(-c2cccc(-c3cccc(-c4cnc(CN5C[C@H](O)[C@@H](O)C5)c(OC)n4)c3Cl)c2Cl)cnc1CNC[C@@H]1CCC(=O)N1")
10.04
>>> measured_result("COc1nc(-c2cccc(-c3cccc(-c4cnc(CN5CC[C@@H](OC)[C@@H](F)C5)c(OC)n4)c3Cl)c2Cl)cnc1CNC[C@@H]1CCC(=O)N1")
9.53
>>> measured_result("COc1nc(-c2cccc(-c3cccc(-c4cnc(CNC[C@H]5CCCN5C(C)=O)c(OC)n4)c3Cl)c2Cl)cnc1CNC[C@@H]1CCC(=O)N1")
9.79
>>> measured_result("COc1nc(-c2cccc(-c3cccc(-c4cnc(CN5CC(F)C5)c(OC)n4)c3Cl)c2Cl)cnc1CN1CC(F)C1")
9.15

Here is the next item to consider.
Task: # lookup: pIC50 of `COc1nc(-c2cccc(-c3cccc(-c4cnc(CN5CC6(CCC(=O)N6)C5)c(OC)n4)c3Cl)c2Cl)cnc1CNC[C@@H]1CCC(=O)N1`
Output: 9.67

###

target-or-test-system: PD-1/PD-L1 (Homo sapiens (Human))
experiment: PD-1/PD-L1 biochemical protein-protein interaction assay (ALPHA)
test-conditions: 0.3 nM His tagged PD-L1, 2.5 nM biotinylated Fc-PD-1, 60 minutes at 25° C., read-out: IC50 PD-L1-PD1
// boundary case: IC50 equal to 0.1 nM maps to -1; strictly smaller maps to 1

>>> category("CNc1nc(-c2cccc(-c3cccc(-c4cnc(CN5CC6(CNC(=O)C6)C5)c(NC)n4)c3Cl)c2Cl)cnc1CN1CC2(CNC(=O)C2)C1")
1
>>> category("COc1nc(-c2cccc(-c3cccc(-c4cnc(CNC[C@@H]5CCC(=O)N5)c(OC)n4)c3Cl)c2Cl)cnc1CNCc1ncccn1")
-1
>>> category("CN(C)c1nc(-c2cccc(-c3cccc(-c4cnc(CN5CC(O)C5)c(Cl)n4)c3Cl)c2Cl)cnc1CN1CC(O)C1")
-1
>>> category("COc1nc(-c2cccc(-c3cccc(-c4cnc(CN5CCC(N6CCNC6=O)C5)c(OC)n4)c3Cl)c2Cl)cnc1CN1CCC(N2CCNC2=O)C1 (stereo not drawn)")
-1
>>> category("COc1nc(-c2cccc(-c3cccc(-c4cnc(CN5CC(OCC(N)=O)C5)c(OC)n4)c3Cl)c2Cl)cnc1CN1CC(OCC(N)=O)C1")
1

In the following, a different compound is considered.
Task: Here's an entry: `COc1nc(-c2cccc(-c3cccc(-c4cnc(CNCC[C@H]5CNC(=O)C5)c(OC)n4)c3Cl)c2Cl)cnc1CNCC[C@H]1CNC(=O)C1` . Is its IC50 below 0.1 nM?
Output: 1

The measurements presented in this section are drawn from patent US10710986B2.
